Each recorded value in this set is attributed to patent US12522597B2.

Form field: MDCK-MDR1: % Recov B-A (one value per entry).
- System: MDR1-MDCK cell monolayers
- testMethodNotes: MDCK-MDR1 permeability assay (BBB penetration potential)
- Format: in vitro ADME
- details: dog, MDCK-MDR1, 120 min, 5 μM, pH 7.4
Field format: number, assumed %, no unit text.

MDCK-MDR1: % Recov B-A lookup needed for Cn1cc(-c2ccc(-c3ccc(O[C@H]4C[C@@H]5CCC[C@@H](N5)[C@H]4F)nn3)c(O)c2)cn1 (single isomer, unassigned) , thanks.
83

====

- Tested on: MDR1
- testMethodNotes: MDCK-MDR1 permeability assay (BBB penetration potential)
- Assay type: in vitro ADME
- details: dog, MDCK-MDR1, pH 7.4, MDCK-MDR1: Papp B-A
Form field: Papp B→A at 120 min, 5 μM (one value per entry).
Field format: number, assumed ×10⁻⁶ cm/s, no unit text.

// solved cases for Papp B→A at 120 min, 5 μM follow
Cn1cc(-c2ccc(-c3ccc(O[C@@H]4C[C@H]5CCC[C@H](N5)[C@@H]4F)nn3)c(O)c2F)cn1 (single isomer, unassigned)
33
Cc1cnc(-c2ccc(-c3ccc(O[C@@H]4C[C@H]5CCC[C@H](N5)[C@@H]4F)nn3)c(O)c2)cn1 (single isomer, unassigned)
24.5

API: the following record is the query input.
Papp B→A at 120 min, 5 μM lookup needed for Oc1cc2nccnc2cc1-c1ccc(O[C@@H]2C[C@H]3CCC[C@H](N3)[C@@H]2F)nn1 (single isomer, unassigned) , thanks.
45.7

====

- Tested on: MDR1
- testMethodNotes: MDCK-MDR1 permeability assay (BBB penetration potential)
- Format: in vitro ADME
- details: dog, MDCK-MDR1, pH 7.4, MDCK-MDR1: Papp B-A
readoutKind: Papp B→A at 120 min, 5 μM (×10⁻⁶ cm/s)
Field format: number, assumed ×10⁻⁶ cm/s, no unit text.

// solved cases for Papp B→A at 120 min, 5 μM follow
Cn1cc(-c2ccc(-c3ccc(O[C@H]4C[C@@H]5CC[C@@H](N5)[C@H]4F)nn3)c(O)c2)cn1 (single isomer, unassigned)
31.3
C[C@]12CCC[C@](C)(N1)[C@H](F)[C@H](Oc1ccc(-c3ccc(C#N)cc3O)nn1)C2 (single isomer, unassigned)
42
Cn1cnc2cc(O)c(-c3ccc(O[C@H]4C[C@]5(C)CCC[C@@](C)(N5)[C@H]4F)nn3)cc2c1=O (single isomer, unassigned)
52.4

Checklist item: Papp B→A at 120 min, 5 μM tested on MDR1, entry Oc1cc(-c2cc[nH]n2)ccc1-c1ccc(O[C@@H]2C[C@H]3CCC[C@H](N3)[C@@H]2F)nn1 (single isomer, unassigned) , value?
10.1

Checklist item: Papp B→A at 120 min, 5 μM tested on MDR1, entry Cc1ncn(-c2ccc(-c3ccc(O[C@H]4C[C@@H]5CCC[C@@H](N5)[C@H]4F)nn3)c(O)c2)n1 (single isomer, unassigned) , value?
40.1

Checklist item: Papp B→A at 120 min, 5 μM tested on MDR1, entry Oc1cc(-c2cn[nH]c2)ccc1-c1ccc(O[C@@H]2C[C@H]3COC[C@H](N3)[C@@H]2F)nn1 (single isomer, unassigned) , value?
87.8

Checklist item: Papp B→A at 120 min, 5 μM tested on MDR1, entry Cn1cc(-c2cc(O)c(-c3ccc(O[C@@H]4C[C@H]5CC[C@H](N5)[C@@H]4F)nn3)cc2F)cn1 (single isomer, unassigned) , value?
13.8

Checklist item: Papp B→A at 120 min, 5 μM tested on MDR1, entry Cn1cc(-c2ccc(-c3ccc(O[C@H]4C[C@H]5CCC[C@H](N5)[C@H]4F)nn3)c(O)c2)cn1 (single isomer, unassigned) , value?
23.3

Checklist item: Papp B→A at 120 min, 5 μM tested on MDR1, entry Cc1ccc(-c2ccc(-c3ccc(O[C@@H]4C[C@H]5CCC[C@H](N5)[C@@H]4F)nn3)c(O)c2)cn1 (single isomer, unassigned) , value?
29.8

Checklist item: Papp B→A at 120 min, 5 μM tested on MDR1, entry Oc1cc(-c2ccc3cncn3c2)ccc1-c1ccc(O[C@@H]2C[C@H]3CCC[C@H](N3)[C@@H]2F)nn1 (single isomer, unassigned) , value?
12.1

Checklist item: Papp B→A at 120 min, 5 μM tested on MDR1, entry Cc1ncc(-c2ccc(-c3ccc(O[C@@H]4C[C@H]5CCC[C@H](N5)[C@@H]4F)nn3)c(O)c2)s1 (single isomer, unassigned) , value?
15.2

Checklist item: Papp B→A at 120 min, 5 μM tested on MDR1, entry Cc1ncc(-c2ccc(-c3ccc(O[C@@H]4C[C@H]5CCC[C@H](N5)[C@@H]4F)nn3)c(O)c2)o1 (single isomer, unassigned) , value?
38.7
